- System: cloned human or rodent CNS receptors, channels, and transporters (PDSP panel)
- method notes: PDSP GPCR panel primary binding assays at 10 μM
- applied conditions: BZP Rat Brain Site; primary assay, replicate 3
The compounds listed here are annotated with their Inhibition 3.
Write the number in % without appending the unit.

As a guide, the following entries are already answered.
CC(=O)N1CCC(NC(=O)NC23CC4CC(CC(C4)C2)C3)CC1 [UNC10302683A, AR9281] :: 1.02
CCC(=O)N1CCC(NC(=O)Nc2ccc(OC(F)(F)F)cc2)CC1 [UNC10302681A, TPPU] :: 1.4
CNc1nc(C)nc(N[C@H]2CCC[C@@H](C(=O)NCc3ccc(C#N)cc3C(F)(F)F)C2)n1 [UNC10302679A, GSK2256294A] :: -2.77

For the next question, use this compound.
Task: Quick check: Inhibition 3 of O=C(NC1CC1)C(=O)C(Cc1ccccc1)NC(=O)[C@H]1CCC(=O)N1Cc1ccccc1 (stereo partly shown) [UNC10302676A, ABT-957 (Alicapistat)] ?
Output: -4.1

* * *

- measured on: cloned human or rodent CNS receptors, channels, and transporters (PDSP panel) (Homo sapiens, UniProt P35368)
- Construct: expressed in transfected cells
- Sequence (P35368 1-520): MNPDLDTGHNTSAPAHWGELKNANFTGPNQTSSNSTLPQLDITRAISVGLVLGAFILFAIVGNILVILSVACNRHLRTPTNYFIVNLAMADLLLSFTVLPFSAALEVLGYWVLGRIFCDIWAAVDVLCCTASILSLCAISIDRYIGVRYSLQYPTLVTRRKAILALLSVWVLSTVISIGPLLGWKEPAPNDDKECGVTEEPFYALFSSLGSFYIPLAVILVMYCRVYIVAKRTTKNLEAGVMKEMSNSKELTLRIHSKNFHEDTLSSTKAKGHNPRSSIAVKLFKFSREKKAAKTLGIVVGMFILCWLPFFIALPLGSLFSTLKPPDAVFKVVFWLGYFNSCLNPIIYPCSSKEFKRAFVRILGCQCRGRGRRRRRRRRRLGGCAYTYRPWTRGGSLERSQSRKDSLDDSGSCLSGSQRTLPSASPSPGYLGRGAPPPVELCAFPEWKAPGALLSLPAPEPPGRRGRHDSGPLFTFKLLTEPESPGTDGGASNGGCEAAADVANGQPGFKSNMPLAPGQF
- method notes: PDSP GPCR panel primary binding assays at 10 μM
- applied conditions: Alpha1B; primary assay, mean inhibition
observed property: Mean % (%)
Write the number in % without appending the unit.

Task: Quick check: Mean % of CNc1nc(C)nc(N[C@H]2CCC[C@@H](C(=O)NCc3ccc(C#N)cc3C(F)(F)F)C2)n1 [UNC10302679A, GSK2256294A] ?
Output: -0.37

Task: Quick check: Mean % of CC(=O)N1CCC(NC(=O)NC23CC4CC(CC(C4)C2)C3)CC1 [UNC10302683A, AR9281] ?
Output: 5.33

Task: Quick check: Mean % of O=C(NC1CC1)C(=O)C(Cc1ccccc1)NC(=O)[C@H]1CCC(=O)N1Cc1ccccc1 (stereo partly shown) [UNC10302676A, ABT-957 (Alicapistat)] ?
Output: -8.47

Task: Quick check: Mean % of CCC(=O)N1CCC(NC(=O)Nc2ccc(OC(F)(F)F)cc2)CC1 [UNC10302681A, TPPU] ?
Output: 7.22

* * *

- measured on: cloned human or rodent CNS receptors, channels, and transporters (PDSP panel) (Homo sapiens)
- Construct: expressed in transfected cells
- method notes: PDSP GPCR panel primary binding assays at 10 μM
- applied conditions: 5-HT7A; primary assay, replicate 3
observed property: Inhibition 3 (%)
Write the number in % without appending the unit.

As a guide, the following entries are already answered.
CNc1nc(C)nc(N[C@H]2CCC[C@@H](C(=O)NCc3ccc(C#N)cc3C(F)(F)F)C2)n1 [UNC10302679A, GSK2256294A] :: 19.91
CCC(=O)N1CCC(NC(=O)Nc2ccc(OC(F)(F)F)cc2)CC1 [UNC10302681A, TPPU] :: 23.63
O=C(NC1CC1)C(=O)C(Cc1ccccc1)NC(=O)[C@H]1CCC(=O)N1Cc1ccccc1 (stereo partly shown) [UNC10302676A, ABT-957 (Alicapistat)] :: 9.06

For the next question, use this compound.
Task: Quick check: Inhibition 3 of CC(=O)N1CCC(NC(=O)NC23CC4CC(CC(C4)C2)C3)CC1 [UNC10302683A, AR9281] ?
Output: 12.78

* * *

- measured on: cloned human or rodent CNS receptors, channels, and transporters (PDSP panel) (Homo sapiens)
- Construct: expressed in transfected cells
- Sequence (P28335 33-458): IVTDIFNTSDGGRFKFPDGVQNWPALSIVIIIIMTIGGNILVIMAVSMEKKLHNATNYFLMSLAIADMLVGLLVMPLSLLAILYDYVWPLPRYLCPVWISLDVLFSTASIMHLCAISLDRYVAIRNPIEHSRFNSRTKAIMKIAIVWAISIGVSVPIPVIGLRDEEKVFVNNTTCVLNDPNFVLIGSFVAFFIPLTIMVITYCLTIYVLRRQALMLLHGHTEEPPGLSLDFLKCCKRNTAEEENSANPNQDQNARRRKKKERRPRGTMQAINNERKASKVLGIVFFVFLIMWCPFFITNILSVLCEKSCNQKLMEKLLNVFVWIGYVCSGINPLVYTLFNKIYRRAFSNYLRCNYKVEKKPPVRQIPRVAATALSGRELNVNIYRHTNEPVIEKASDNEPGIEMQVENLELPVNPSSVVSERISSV
- method notes: PDSP GPCR panel primary binding assays at 10 μM
- applied conditions: Receptor 5-HT2C; primary assay, 10 μM
observed property: Inhibition 4 (%)
Write the number in % without appending the unit.

As a guide, the following entries are already answered.
Cl.NC(=O)c1cnc(N[C@@H]2CCCC[C@@H]2N)nc1Nc1cccc(-n2nccn2)c1 [UNC10302682A, P505-15 (PRT06207 HCl)] :: 44.66
O=c1oc2ccccc2cc1-c1cn2cc(Cc3ccc(F)cc3)sc2n1 [UNC10302680A, iMDK] :: -2.94
CCCCNc1ncc2c(-c3ccc(CN4CCN(C)CC4)cc3)cn([C@H]3CC[C@H](O)CC3)c2n1 [UNC2025C, UNC2025] :: 26.99

Task: Quick check: Inhibition 4 of c1cn2cc(-c3ccc4cn[nH]c4c3)nc(Nc3ccc(N4CCOCC4)cc3)c2n1 [UNC10302678A, Entospletinib (GS-9973)] ?
Output: -19.14

* * *

- measured on: cloned human or rodent CNS receptors, channels, and transporters (PDSP panel) (Homo sapiens, UniProt P18089)
- Construct: expressed in transfected cells
- Sequence (P18089 1-450): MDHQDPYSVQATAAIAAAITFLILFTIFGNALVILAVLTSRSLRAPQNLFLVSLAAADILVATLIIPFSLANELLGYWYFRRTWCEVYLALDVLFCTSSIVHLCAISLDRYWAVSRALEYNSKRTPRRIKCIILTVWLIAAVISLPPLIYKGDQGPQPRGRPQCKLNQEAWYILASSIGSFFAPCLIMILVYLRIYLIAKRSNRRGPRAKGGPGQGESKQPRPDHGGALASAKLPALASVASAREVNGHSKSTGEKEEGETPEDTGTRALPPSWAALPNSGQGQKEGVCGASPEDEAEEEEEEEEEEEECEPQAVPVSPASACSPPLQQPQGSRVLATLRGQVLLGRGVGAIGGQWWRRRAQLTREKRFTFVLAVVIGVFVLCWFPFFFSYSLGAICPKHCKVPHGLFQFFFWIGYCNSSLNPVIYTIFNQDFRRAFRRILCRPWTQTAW
- method notes: PDSP GPCR panel primary binding assays at 10 μM
- applied conditions: Receptor Alpha2B; primary assay, 10 μM
The compounds listed here are annotated with their Inhibition 3.
Write the number in % without appending the unit.

As a guide, the following entries are already answered.
Cl.NC(=O)c1cnc(N[C@@H]2CCCC[C@@H]2N)nc1Nc1cccc(-n2nccn2)c1 [UNC10302682A, P505-15 (PRT06207 HCl)] :: -7.3
O=c1oc2ccccc2cc1-c1cn2cc(Cc3ccc(F)cc3)sc2n1 [UNC10302680A, iMDK] :: -7.31
CCCCNc1ncc2c(-c3ccc(CN4CCN(C)CC4)cc3)cn([C@H]3CC[C@H](O)CC3)c2n1 [UNC2025C, UNC2025] :: -0.55

For the next question, use this compound.
Task: Quick check: Inhibition 3 of c1cn2cc(-c3ccc4cn[nH]c4c3)nc(Nc3ccc(N4CCOCC4)cc3)c2n1 [UNC10302678A, Entospletinib (GS-9973)] ?
Output: -12.73

* * *

- measured on: cloned human or rodent CNS receptors, channels, and transporters (PDSP panel) (Homo sapiens, UniProt P08912)
- Construct: expressed in transfected cells
- Sequence (P08912 whole entry): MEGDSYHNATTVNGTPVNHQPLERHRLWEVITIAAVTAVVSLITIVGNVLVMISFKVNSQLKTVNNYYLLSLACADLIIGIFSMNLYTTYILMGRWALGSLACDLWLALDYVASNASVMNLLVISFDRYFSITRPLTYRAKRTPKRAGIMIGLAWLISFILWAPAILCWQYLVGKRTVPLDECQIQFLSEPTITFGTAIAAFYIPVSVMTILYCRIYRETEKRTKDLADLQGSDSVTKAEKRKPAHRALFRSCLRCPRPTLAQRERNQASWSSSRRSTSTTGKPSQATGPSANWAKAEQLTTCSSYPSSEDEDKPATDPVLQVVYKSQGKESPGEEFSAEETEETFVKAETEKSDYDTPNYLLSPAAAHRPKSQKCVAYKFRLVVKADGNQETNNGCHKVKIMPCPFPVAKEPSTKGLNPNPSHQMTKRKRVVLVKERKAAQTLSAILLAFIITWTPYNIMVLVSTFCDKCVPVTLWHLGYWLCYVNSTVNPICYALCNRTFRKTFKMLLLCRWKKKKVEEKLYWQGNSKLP
- method notes: PDSP GPCR panel primary binding assays at 10 μM
- applied conditions: M5; primary assay, replicate 4
The compounds listed here are annotated with their Inhibition 4.
Write the number in % without appending the unit.

CCC(=O)N1CCC(NC(=O)Nc2ccc(OC(F)(F)F)cc2)CC1 [UNC10302681A, TPPU] :: -14.93
CNc1nc(C)nc(N[C@H]2CCC[C@@H](C(=O)NCc3ccc(C#N)cc3C(F)(F)F)C2)n1 [UNC10302679A, GSK2256294A] :: -7.08
O=C(NC1CC1)C(=O)C(Cc1ccccc1)NC(=O)[C@H]1CCC(=O)N1Cc1ccccc1 (stereo partly shown) [UNC10302676A, ABT-957 (Alicapistat)] :: -4.26

For the next question, use this compound.
Task: Quick check: Inhibition 4 of CC(=O)N1CCC(NC(=O)NC23CC4CC(CC(C4)C2)C3)CC1 [UNC10302683A, AR9281] ?
Output: -4.87
